test system: HCT-15 colon; assay: NCI tumour cell line growth inhibition, 48 h
recorded_endpoint: GI50

Reported GI50 of O=C1/C(=C/C(Cl)=C/c2ccccc2)SC(=S)N1CCc1ccc(O)cc1 : 2.05 µM

Reported GI50 of CCCC(=O)NNc1[nH]c(-c2ccc(OC)cc2)cc1C(=O)OCC : 9.47 µM

Reported GI50 of COc1ccc2c(c1)Cc1c-2c(NN)nc2ccccc12 : 25.5 µM

Reported GI50 of Clc1ccc(CO/N=C(\Cn2ccnc2)c2ccc(Cl)cc2Cl)c(Cl)c1 : 1.57 µM

Reported GI50 of COc1cnc2c(c1)C(=O)c1c-2n(CCCN2CCN(C)CC2)c(=O)c2cc(Cl)ccc12 : 4.08 µM
